Tested on: Human Rhinovirus 14 (HRV14) in H1-HeLa cells
ASSAY EXPLANATION: H1-HeLa HRV-CTG 384-well Assay (Ex. Y), HRV14
Assay type: cell-based
SETUP CONDITIONS: Rhinovirus B, 96 h; H1-HeLa cells, HRV14 MOI 1.0, 4 days, Celltiter-Glo; read-out: EC50 H1-HeLa_HRV14_HRV-CTG 384-well Assay (per Ex Y)
Entries and their pEC50 values follow.
# log scale: pEC50 equals minus log10 of the concentration in mol/L

Entry CCC(CC)C(=O)Nc1ncnn2c([C@@H]3O[C@](C#N)(COC(=O)C(CC)CC)[C@@H](O)[C@H]3O)ccc12 ; assay system Human Rhinovirus 14 (HRV14) in H1-HeLa cells; pEC50 recorded at 4.30

Entry CC1(CC(=O)OC[C@@]2(C#N)O[C@@H](c3ccc4c(N)ncnn34)[C@H](O)[C@@H]2O)CCC1 ; assay system Human Rhinovirus 14 (HRV14) in H1-HeLa cells; pEC50 recorded at 4.68

Entry N#C[C@]1(COC(=O)C2CC3(CCC3)C2)O[C@@H](c2ccc3c(N)ncnn23)[C@H](O)[C@@H]1O ; assay system Human Rhinovirus 14 (HRV14) in H1-HeLa cells; pEC50 recorded at 5.29

---

System: Human Rhinovirus 16 (HRV16) in H1-HeLa cells
ASSAY EXPLANATION: H1-HeLa HRV-CTG 384-well Assay (Ex. Y), HRV16
Assay type: cell-based
SETUP CONDITIONS: Rhinovirus A, 96 h; H1-HeLa cells, HRV16 MOI 0.25, 4 days, Celltiter-Glo; read-out: EC50 H1-HeLa_HRV16_HRV-CTG 384-well Assay (per Ex. Y)
Entries and their pEC50 values follow.
# log scale: pEC50 equals minus log10 of the concentration in mol/L

// pEC50 lookup, compound = CC(C)C(=O)OC[C@@]1(C#N)O[C@@H](c2ccc3c(N)ncnn23)[C@H](O)[C@@H]1O [Compound 1] , result: 5.03

// pEC50 lookup, compound = N#C[C@]1(COC(=O)[C@H]2CCC(=O)O2)O[C@@H](c2ccc3c(N)ncnn23)[C@H](O)[C@@H]1O [Compound 25] , result: 5.08

---

ASSAY EXPLANATION: GI S9 stability (Ex. Z), rat intestinal S9
Assay type: in vitro ADME
SETUP CONDITIONS: pooled intestinal S9 fractions; rat intestinal S9, 1.0 mg/mL protein, 2 μM substrate, pH 7.4; read-out: GIS9 Rat T½ (per Ex. Z)
Outcome label depends on half-life at 2 μM relative to 6 min: at/above gives YES, below gives NO.

- MOLECULE: "CC(C)CC(=O)OC[C@@]1(C#N)O[C@@H](c2ccc3c(N)ncnn23)[C@H](O)[C@@H]1O [Compound 3]"
  CLASS ASSIGNMENT: "YES"
- MOLECULE: "CC(C)C(=O)Nc1ncnn2c([C@@H]3O[C@](C#N)(CO)[C@@H](O)[C@H]3O)ccc12 [Compound 30]"
  CLASS ASSIGNMENT: "YES"
- MOLECULE: "CC(=O)OC[C@@]1(C#N)O[C@@H](c2ccc3c(N)ncnn23)[C@H](O)[C@@H]1O [Compound 4]"
  CLASS ASSIGNMENT: "YES"
- MOLECULE: "CC(C)[C@H](N)C(=O)OC[C@@]1(C#N)O[C@@H](c2ccc3c(N)ncnn23)[C@H](O)[C@@H]1O [Compound 12]"
  CLASS ASSIGNMENT: "YES"
- MOLECULE: "N#C[C@]1(COC(=O)CC2CCC2)O[C@@H](c2ccc3c(N)ncnn23)[C@H](O)[C@@H]1O [Compound 16]"
  CLASS ASSIGNMENT: "NO"
- MOLECULE: "CCC(=O)OC[C@@]1(C#N)O[C@@H](c2ccc3c(N)ncnn23)[C@H](O)[C@@H]1O [Compound 5]"
  CLASS ASSIGNMENT: "YES"

Is it the case that CCCC(=O)OC[C@@]1(C#N)O[C@@H](c2ccc3c(N)ncnn23)[C@H](O)[C@@H]1O [Compound 6] has half-life at 2 μM reaching or exceeding 6 min?
NO

Is it the case that CC(C)C(=O)OC[C@@]1(C#N)O[C@@H](c2ccc3c(N)ncnn23)[C@H](O)[C@@H]1O [Compound 1] has half-life at 2 μM reaching or exceeding 6 min?
YES

Is it the case that CC1(C)CC(C(=O)OC[C@@]2(C#N)O[C@@H](c3ccc4c(N)ncnn34)[C@H](O)[C@@H]2O)C1 [Compound 17] has half-life at 2 μM reaching or exceeding 6 min?
NO

Is it the case that CC(C)C(=O)Nc1ncnn2c([C@@H]3O[C@](C#N)(COC(=O)C(C)C)[C@@H](OC(=O)C(C)C)[C@H]3OC(=O)C(C)C)ccc12 [Compound 21] has half-life at 2 μM reaching or exceeding 6 min?
NO
